Origin of the recorded values: paper PMC10337980

Target: CsRDL (Chilo suppressalis, UniProt E2IKR3)
Construct: homomeric channel
Sequence (E2IKR3 27-496): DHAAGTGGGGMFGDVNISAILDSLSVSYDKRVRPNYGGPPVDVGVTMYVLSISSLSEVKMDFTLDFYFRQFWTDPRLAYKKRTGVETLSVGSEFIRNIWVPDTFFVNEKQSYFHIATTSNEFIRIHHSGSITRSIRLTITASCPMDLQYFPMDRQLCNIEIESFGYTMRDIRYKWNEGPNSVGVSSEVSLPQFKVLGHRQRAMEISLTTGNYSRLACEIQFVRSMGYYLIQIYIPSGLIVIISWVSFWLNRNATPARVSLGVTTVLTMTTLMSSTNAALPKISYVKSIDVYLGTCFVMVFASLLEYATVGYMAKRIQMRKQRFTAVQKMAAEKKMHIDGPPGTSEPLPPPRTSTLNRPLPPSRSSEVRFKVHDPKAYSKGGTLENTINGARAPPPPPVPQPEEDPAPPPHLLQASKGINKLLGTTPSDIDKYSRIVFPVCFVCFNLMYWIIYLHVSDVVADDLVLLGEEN
Experiment: two-electrode voltage clamp, GABA-induced current in Xenopus oocytes
valueType: EC50 (µM)
Give bare numbers, in µM.

Challenge: Any idea what EC50 was measured for NCCCC(=O)O [GABA] ?
Response given: 18.1

* * *

Biological target: DmRDL (Drosophila melanogaster)
Construct: homomeric
Assay: two-electrode voltage clamp, inhibition of GABA-induced current in Xenopus oocytes
valueType: IC50
Answer by giving the amount and then stating its unit.

Challenge: Bench note: what IC50 did Cc1cc(C2=NOC(c3cc(Cl)cc(Cl)c3)(C(F)(F)F)C2)ccc1C(=O)NCC(=O)NCC(F)(F)F (stereo not shown) show?
Response given: 6.96 nM

* * *

Biological target: CsRDL (Chilo suppressalis, UniProt E2IKR3)
Construct: homomeric channel
Test: two-electrode voltage clamp, inhibition of GABA-induced current in Xenopus oocytes
Assign pIC50 to each entry below.
Answers are plain numbers, as −log10 of the molar value.

Challenge: Reported pIC50 for N#Cc1nn(-c2c(Cl)cc(C(F)(F)F)cc2Cl)c(N)c1[S+]([O-])C(F)(F)F (centres unmarked) [fipronil] : what is it?
Response given: 8.00

Okay, next one:
Challenge: # lookup: pIC50 of Cc1cc(C2=NOC(c3cc(Cl)cc(Cl)c3)(C(F)(F)F)C2)ccc1C(=O)NCC(=O)NCC(F)(F)F (centres unmarked) [fluralaner]
Response given: 8.38

* * *

Target: TuRDL (Tetranychus urticae)
Construct: homomeric
Sequence (E3WEB3 18-827): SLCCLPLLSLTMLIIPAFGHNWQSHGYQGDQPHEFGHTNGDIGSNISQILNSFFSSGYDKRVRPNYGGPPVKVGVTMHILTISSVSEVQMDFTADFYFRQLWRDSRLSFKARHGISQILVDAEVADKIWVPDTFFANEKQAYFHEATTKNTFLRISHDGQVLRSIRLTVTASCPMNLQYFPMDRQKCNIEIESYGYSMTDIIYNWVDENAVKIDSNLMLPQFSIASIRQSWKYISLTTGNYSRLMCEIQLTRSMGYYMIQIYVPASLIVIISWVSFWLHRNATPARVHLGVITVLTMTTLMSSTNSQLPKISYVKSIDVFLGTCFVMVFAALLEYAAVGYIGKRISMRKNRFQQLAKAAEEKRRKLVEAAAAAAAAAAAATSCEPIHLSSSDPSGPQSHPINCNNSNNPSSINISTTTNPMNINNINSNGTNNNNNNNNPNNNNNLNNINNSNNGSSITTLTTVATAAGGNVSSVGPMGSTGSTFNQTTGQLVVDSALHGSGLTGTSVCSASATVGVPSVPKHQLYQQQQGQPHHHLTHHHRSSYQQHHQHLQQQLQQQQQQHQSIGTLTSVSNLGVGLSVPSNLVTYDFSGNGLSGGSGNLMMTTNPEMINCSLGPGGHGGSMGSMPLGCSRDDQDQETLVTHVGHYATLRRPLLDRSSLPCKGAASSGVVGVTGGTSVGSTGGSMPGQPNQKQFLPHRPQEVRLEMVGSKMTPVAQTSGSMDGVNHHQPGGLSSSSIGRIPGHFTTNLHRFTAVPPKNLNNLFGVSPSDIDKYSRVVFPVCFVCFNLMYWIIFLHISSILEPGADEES
Experiment: two-electrode voltage clamp, inhibition of GABA-induced current in Xenopus oocytes
valueType: IC50 (nM)
Numbers only, in nM.

Challenge: For the molecule shown here, Cc1cc(C2=NOC(c3cc(Cl)cc(Cl)c3)(C(F)(F)F)C2)ccc1C(=O)NCC(=O)NCC(F)(F)F (stereo not shown) [fluralaner] , give the reported IC50.
Response given: 2.53

* * *

Target: DmRDL (Drosophila melanogaster, UniProt P25123, G335M)
Construct: homomeric
Sequence (P25123 45-606 G335M): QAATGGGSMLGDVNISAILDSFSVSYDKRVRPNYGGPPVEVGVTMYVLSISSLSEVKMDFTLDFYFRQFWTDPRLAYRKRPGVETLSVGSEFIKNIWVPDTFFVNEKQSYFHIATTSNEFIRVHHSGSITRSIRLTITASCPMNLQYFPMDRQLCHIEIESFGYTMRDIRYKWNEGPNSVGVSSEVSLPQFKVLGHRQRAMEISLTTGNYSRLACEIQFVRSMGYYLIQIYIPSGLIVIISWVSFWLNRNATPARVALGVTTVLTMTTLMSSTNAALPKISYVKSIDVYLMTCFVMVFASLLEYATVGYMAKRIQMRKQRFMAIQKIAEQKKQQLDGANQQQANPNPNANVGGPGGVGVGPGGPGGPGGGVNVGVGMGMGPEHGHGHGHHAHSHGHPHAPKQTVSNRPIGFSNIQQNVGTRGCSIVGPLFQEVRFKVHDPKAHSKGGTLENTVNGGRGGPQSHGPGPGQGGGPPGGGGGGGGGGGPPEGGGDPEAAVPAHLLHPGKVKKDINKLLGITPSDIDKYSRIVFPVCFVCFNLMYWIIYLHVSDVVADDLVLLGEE
Assay: two-electrode voltage clamp, inhibition of GABA-induced current in Xenopus oocytes
valueType: IC50

Challenge: Quick check: IC50 on DmRDL (Drosophila melanogaster, UniProt P25123, G335M), item Cc1cc(C2=NOC(c3cc(Cl)cc(Cl)c3)(C(F)(F)F)C2)ccc1C(=O)NCC(=O)NCC(F)(F)F (stereo not shown) ?
Response given: > 10 µM
